Overview of reported normalized growth across a group of molecules:
EXPERIMENTAL_DETAILS: chemical genetic growth profiling, strain panel (AID 1159580);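 also: tested at 20 µM; growth read once vehicle control cultures reached saturation at 30 °C; 1 = growth at the plate median or of vehicle wells; lower values mean less growth of the strain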
DETAILS: S. cerevisiae deletion strains, growth OD, locus YMR307W, strain GAS1, active compounds read low
Hit rate of the full screen: of about 5,500 compounds, about 2,000 (36%) were called active. Not shown: some 18% with an inconclusive outcome. The list shows a part of the results.

- MOLECULE: "C[n+]1ccccc1/C=N/O"
  normalized growth: 0.992
- MOLECULE: "CCCN(CCC)S(=O)(=O)c1ccc(C(=O)O)cc1"
  normalized growth: 1
- MOLECULE: "NNCc1cccc(O)c1"
  normalized growth: 1.01
- MOLECULE: "CC(=O)Oc1cccc(O)c1"
  normalized growth: 0.985
- MOLECULE: "C[C@@H](NC(=O)/C(C#N)=C/c1ccc(O)c(O)c1)c1ccccc1"
  normalized growth: 1.01
- MOLECULE: "C=C/C(C)=C/[C@@]1(C)SC(=O)C(C)=C1O"
  normalized growth: 0.998
- MOLECULE: "NS(=O)(=O)c1cc2c(cc1Cl)NC(CSCc1ccccc1)=NS2(=O)=O"
  normalized growth: 0.971
- MOLECULE: "CC(=O)Oc1ccc(/C=C/c2cc(OC(C)=O)cc(OC(C)=O)c2)cc1"
  normalized growth: 1.16
- MOLECULE: "Oc1cccc(O)c1"
  normalized growth: 0.989
- MOLECULE: "CCN1CCCC1CNC(=O)c1cc(S(N)(=O)=O)ccc1OC (configuration not stated)"
  normalized growth: 1.02
- MOLECULE: "CC(=O)Oc1ccc(C(c2ccc(OC(C)=O)cc2)c2ccccn2)cc1"
  normalized growth: 0.934
- MOLECULE: "CC(C)c1ccc2c(c1)CCC1[C@](C)(CN)CCC[C@]21C (some centres not stated)"
  normalized growth: 0.16

----------
EXPERIMENTAL_DETAILS: chemical genetic growth profiling, strain panel (AID 1159580);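 also: tested at 20 µM; growth read once vehicle control cultures reached saturation at 30 °C; 1 = growth at the plate median or of vehicle wells; lower values mean less growth of the strain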
DETAILS: S. cerevisiae deletion strains, growth OD, locus YFR028C, strain CDC14, active compounds read low
In all, about 5,500 compounds went through this assay and about 2,000 (36%) were called active. Roughly 18% stayed inconclusive and do not appear here. The list shows a part of the results.
MEASURED_QUANTITY: normalized growth

- STRUCTURE_NOTATION: "OC(COc1ccc(F)cc1)(c1ccc(Cl)cc1)c1ccc(Cl)cc1"
  READOUT_NUMBER: 0.986
- STRUCTURE_NOTATION: "Clc1ccc(SCc2ccsc2-c2ncns2)cc1"
  READOUT_NUMBER: 0.96
- STRUCTURE_NOTATION: "N/C(Cc1cccc2ccccc12)=N/OC(=O)c1ccc(Cl)cc1"
  READOUT_NUMBER: 0.956
- STRUCTURE_NOTATION: "O=S(=O)(Oc1ccc(-c2csnn2)cc1)c1ccccc1Cl"
  READOUT_NUMBER: 0.957
- STRUCTURE_NOTATION: "CC(C)(C)c1cc(C(=O)NNc2cccc(Cl)c2)n(Cc2ccccc2)n1"
  READOUT_NUMBER: 0.974

----------
EXPERIMENTAL_DETAILS: chemical genetic growth profiling, strain panel (AID 1159580);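 also: tested at 20 µM; growth read once vehicle control cultures reached saturation at 30 °C; 1 = growth at the plate median or of vehicle wells; lower values mean less growth of the strain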
DETAILS: S. cerevisiae deletion strains, growth OD, locus YLL041C, strain sdh2, active compounds read low
Out of some 5,500 compounds screened, about 2,000 (36%) were called active. Roughly 18% stayed inconclusive and do not appear here. The list shows a part of the results.
MEASURED_QUANTITY: normalized growth

- COMPOUND: "O=C(NCO)c1cccnc1"
  MEASURED_QUANTITY: "normalized growth"
  READOUT_NUMBER: 1.01
- COMPOUND: "CCCN(CCC)S(=O)(=O)c1ccc(C(=O)O)cc1"
  MEASURED_QUANTITY: "normalized growth"
  READOUT_NUMBER: 0.992
- COMPOUND: "CNCCCC12CCC(c3ccccc31)c1ccccc12"
  MEASURED_QUANTITY: "normalized growth"
  READOUT_NUMBER: 0.98
- COMPOUND: "NC(=O)c1cccnc1"
  MEASURED_QUANTITY: "normalized growth"
  READOUT_NUMBER: 0.982
- COMPOUND: "CC[N+](C)(C)c1cccc(O)c1"
  MEASURED_QUANTITY: "normalized growth"
  READOUT_NUMBER: 1.01
- COMPOUND: "NCC(=O)c1ccccc1"
  MEASURED_QUANTITY: "normalized growth"
  READOUT_NUMBER: 1
- COMPOUND: "O=C(O)c1ccc(S(=O)(=O)N(Cl)Cl)cc1"
  MEASURED_QUANTITY: "normalized growth"
  READOUT_NUMBER: 0.989
- COMPOUND: "CC(C)CCCC(C)[C@H]1CCC2C3C(=O)C=C4C[C@@H](O)CC[C@]4(C)C3CC[C@@]21C (some centres not stated)"
  MEASURED_QUANTITY: "normalized growth"
  READOUT_NUMBER: 0.991
- COMPOUND: "N=C(N)N"
  MEASURED_QUANTITY: "normalized growth"
  READOUT_NUMBER: 1
- COMPOUND: "O=C(O)c1cccnc1"
  MEASURED_QUANTITY: "normalized growth"
  READOUT_NUMBER: 0.992
- COMPOUND: "CCC(C)C(=O)OC1[C@@H]2CC3=C4CC(=O)O[C@@H](c5ccoc5)[C@]4(C)CCC3[C@@](C)(C2=O)[C@@H](CC(=O)OC)C1(C)C (some centres not stated)"
  MEASURED_QUANTITY: "normalized growth"
  READOUT_NUMBER: 1.01
- COMPOUND: "CC(=O)O[C@H]1CCC2(C)C3=C(CCC2C1(C)C)[C@]1(C)CCC(C(C)CCC=C(C)C)[C@@]1(C)CC3 (some centres not stated)"
  MEASURED_QUANTITY: "normalized growth"
  READOUT_NUMBER: 1
- COMPOUND: "Oc1cccc(O)c1"
  MEASURED_QUANTITY: "normalized growth"
  READOUT_NUMBER: 0.979
- COMPOUND: "COC(=O)c1c(OC)cc2c(c1C)Oc1c(Cl)c(OC(C)=O)c(Cl)c(C)c1C(=O)O2"
  MEASURED_QUANTITY: "normalized growth"
  READOUT_NUMBER: 0.988
- COMPOUND: "CC(=O)O[C@H]1CC[C@@]2(C)C(=CC(=O)C3C4CCC(C(C)CCCC(C)C)[C@@]4(C)CCC32)C1 (some centres not stated)"
  MEASURED_QUANTITY: "normalized growth"
  READOUT_NUMBER: 0.993
- COMPOUND: "COc1cc(C(C)=O)cc(OC)c1O"
  MEASURED_QUANTITY: "normalized growth"
  READOUT_NUMBER: 1.02
- COMPOUND: "COC(=O)c1c(OC)cc2c(c1C)Oc1c(Cl)c(O)c(Cl)c(C)c1C(=O)O2"
  MEASURED_QUANTITY: "normalized growth"
  READOUT_NUMBER: 0.978

----------
# normalized growth annotations
EXPERIMENTAL_DETAILS: chemical genetic growth profiling, strain panel (AID 1159580);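 also: tested at 20 µM; growth read once vehicle control cultures reached saturation at 30 °C; 1 = growth at the plate median or of vehicle wells; lower values mean less growth of the strain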
DETAILS: S. cerevisiae deletion strains, growth OD, locus YPL256C, strain CLN2, active compounds read low
Out of some 5,500 compounds screened, about 2,000 (36%) were called active. Inconclusive results (about 18%) are left out. The list shows a part of the results.

- COMPOUND: "CC(C)C[C@@H](CN)CC(=O)O"
  normalized growth: 0.984
- COMPOUND: "CC(CCC(=O)O)[C@H]1CCC2C3C(=O)C[C@@H]4CC(=O)CC[C@]4(C)C3CC(=O)[C@@]21C (some centres undefined)"
  normalized growth: 1.02
- COMPOUND: "CC(C)c1ccc2c(c1)CCC1[C@](C)(CN)CCC[C@]21C (some centres undefined)"
  normalized growth: 0.979
- COMPOUND: "NC(=O)NC(=O)Cc1ccccc1"
  normalized growth: 0.96
- COMPOUND: "CCOC(=O)c1ccc(Cl)c(N=Cc2cc(Cl)cc(Cl)c2O)c1"
  normalized growth: 0.317
- COMPOUND: "O=C1NC(O)=NC1(c1ccccc1)c1ccccc1"
  normalized growth: 0.982
- COMPOUND: "O=C(OCc1ccccc1)c1ccccc1"
  normalized growth: 0.832
- COMPOUND: "CN(C)[C@@H]1C(=O)C(C(N)=O)=C(O)[C@@]2(O)C(=O)C3=C(O)c4c(O)ccc(Cl)c4[C@@](C)(O)[C@H]3C[C@@H]12"
  normalized growth: 1.03
- COMPOUND: "OC[C@H]1O[C@@H](O[C@H]2[C@H](O)[C@@H](O)[C@@H](O)O[C@@H]2CO)[C@H](O)[C@@H](O)[C@@H]1O"
  normalized growth: 0.975
- COMPOUND: "O=C(OOC(=O)c1ccccc1)c1ccccc1"
  normalized growth: 0.773
- COMPOUND: "CC(CCC(=O)O)[C@H]1CCC2C3CC[C@@H]4CC(=O)CC[C@]4(C)C3C=C[C@@]21C (some centres undefined)"
  normalized growth: 0.963
- COMPOUND: "C[C@H](CCC(=O)O)[C@H]1CCC2C3C(=O)CC4CC(=O)CC[C@]4(C)C3CC(=O)[C@@]21C (some centres undefined)"
  normalized growth: 1.04
- COMPOUND: "NCC(=O)c1ccccc1"
  normalized growth: 1.05
- COMPOUND: "CC(=O)c1ccc(Cl)c(N=Cc2cc(Cl)cc(Cl)c2O)c1"
  normalized growth: 0.197
